Experiment: Dog pharmacokinetic study
Type: in vivo
Conditions: dog, plasma, sc, 67 ug/kg; male beagle dogs, subcutaneous 67 μg/kg
Where a SMILES comes first, the peptide text is derived from it. [ ]: non-standard residue; d: D form. ξ: configuration not given here. Ala(6-(2-MePh)pyridin-3-yl) = Cc1ccccc1-c1ccc(C[C@H](N)C(=O)O)cn1; Bip(2'-Et-4'-OMe) = CCc1cc(OC)ccc1-c1ccc(C[C@H](N)C(=O)O)cc1; ξαMePhe(2-F) = CC(N)(Cc1ccccc1F)C(=O)O; Thr(3ξ) = CC(O)[C@H](N)C(=O)O; Aib = CC(C)(N)C(=O)O
Attribute measured: Cmax (nM)
Give bare numbers, in nM.

Report Cmax for CCc1cc(OC)ccc1-c1ccc(C[C@H](NC(=O)[C@H](CC(=O)O)NC(=O)[C@H](CO)NC(=O)[C@@H](NC(=O)C(C)(Cc2ccccc2F)NC(=O)[C@@H](NC(=O)CNC(=O)[C@H](CCC(=O)O)NC(=O)C(C)(C)NC(=O)[C@@H](N)Cc2c[nH]cn2)C(C)O)C(C)O)C(=O)N[C@@H](Cc2ccc(-c3ccccc3C)nc2)C(N)=O)cc1 (stereo partly shown) [SEQ ID NO: 9] (H-H[Aib]EG[Thr(3ξ)][ξαMePhe(2-F)][Thr(3ξ)]SD[Bip(2'-Et-4'-OMe)][Ala(6-(2-MePh)pyridin-3-yl)]-NH2) please. 116
